The entries below come with measured pIC50 values attached.
target: Jak3 (Homo sapiens); construct: Jak3 enzyme (aa 811-1103); GST; test: Jak3 enzyme data for selected compounds
Sequence (P52333 811-1103): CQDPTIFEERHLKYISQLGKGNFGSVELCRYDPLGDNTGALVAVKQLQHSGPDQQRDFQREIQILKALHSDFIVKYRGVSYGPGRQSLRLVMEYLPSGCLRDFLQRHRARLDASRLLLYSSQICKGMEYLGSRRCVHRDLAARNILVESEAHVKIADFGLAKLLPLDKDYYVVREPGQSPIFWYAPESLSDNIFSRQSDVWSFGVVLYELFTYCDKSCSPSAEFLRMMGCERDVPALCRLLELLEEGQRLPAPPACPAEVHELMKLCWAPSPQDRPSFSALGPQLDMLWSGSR
pIC50: −log10 of the molar value.
Endpoint label: pIC50

[[record]]
molecule = "CC[C@@H]1C[C@H](N(CCO)S(=O)(=O)C2CC2)C[C@@H]1c1nnc2cnc3[nH]ccc3n12"
assay_target = "Jak3 (Homo sapiens)"
data_value = "> 7.00"

[[record]]
molecule = "N#Cc1ccc(OCC23C4C5C2C2C3C4C52c2ncc3cnc4[nH]ccc4n23)cc1 (centres unmarked)"
assay_target = "Jak3 (Homo sapiens)"
data_value = "6.00 to 7.00"

[[record]]
molecule = "O=S(=O)(CCC(F)(F)F)N1CC2CN(c3ncc4cnc5[nH]ccc5n34)CC2C1 (centres unmarked)"
assay_target = "Jak3 (Homo sapiens)"
data_value = "< 6.00"

[[record]]
molecule = "C[C@@H]1CCN(C(=O)N2CCCCCC2)C[C@@H]1c1ncc2cnc3[nH]ccc3n12"
assay_target = "Jak3 (Homo sapiens)"
data_value = "> 7.00"

[[record]]
molecule = "CC[C@@H]1C[C@H](NS(=O)(=O)N2CCC[C@H]2C(F)(F)F)CC1c1nnc2cnc3[nH]ccc3n12 (some centres unmarked)"
assay_target = "Jak3 (Homo sapiens)"
data_value = "6.00 to 7.00"

[[record]]
molecule = "CC[C@@H]1C[C@H](N(C#N)S(=O)(=O)C2CC2)C[C@@H]1c1nnc2cnc3[nH]ccc3n12"
assay_target = "Jak3 (Homo sapiens)"
data_value = "6.00 to 7.00"

[[record]]
molecule = "CC[C@@H]1C[C@@H](Oc2ccc(C#N)cc2)C[C@@H]1c1ncc2cnc3[nH]ccc3n12"
assay_target = "Jak3 (Homo sapiens)"
data_value = "> 7.00"

[[record]]
molecule = "C[C@@H]1CCN(C(=O)C2(C#N)CC2)C[C@@H]1c1ncc2cnc3[nH]ccc3n12 (racemic)"
assay_target = "Jak3 (Homo sapiens)"
data_value = "6.00 to 7.00"

